Where these numbers come from: patent US20160083466A1

Target: T1, monkey IL-25 expressed with a C-terminal myc-myc-hexahistidine tag (M. fascicularis (cynomolgus monkey))
T1 construct: also called Monkey IL-25-MMH; MfIL-25-MMH
T1 chain: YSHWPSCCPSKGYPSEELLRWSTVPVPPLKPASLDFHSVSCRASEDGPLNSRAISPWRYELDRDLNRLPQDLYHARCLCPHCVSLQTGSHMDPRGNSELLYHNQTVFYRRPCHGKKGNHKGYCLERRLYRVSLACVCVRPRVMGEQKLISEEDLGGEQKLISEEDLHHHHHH
Experiment: SPR Biacore, antibody captured, 37C;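 further: biacore 4000 surface plasmon resonance biosensor measuring binding of IL-25-MMH to purified anti-IL-25 antibodies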
Entries and their kon
State the answer as a number, implicitly in M⁻¹ s⁻¹.

>  <binder>
H4H10871P (antibody, human IgG4, V domains shown, H4H prefix = human IgG4 Fc) VH: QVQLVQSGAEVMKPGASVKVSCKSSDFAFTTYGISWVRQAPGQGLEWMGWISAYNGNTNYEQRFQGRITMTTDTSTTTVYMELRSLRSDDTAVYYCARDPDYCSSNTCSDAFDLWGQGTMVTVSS VL: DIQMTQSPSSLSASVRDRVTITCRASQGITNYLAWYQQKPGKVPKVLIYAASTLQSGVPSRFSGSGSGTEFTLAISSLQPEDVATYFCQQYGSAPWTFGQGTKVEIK

>  <measuredValue>
1.35e+06

$$$$
>  <binder>
H4H10876P (antibody, human IgG4, V domains shown, H4H prefix = human IgG4 Fc) VH: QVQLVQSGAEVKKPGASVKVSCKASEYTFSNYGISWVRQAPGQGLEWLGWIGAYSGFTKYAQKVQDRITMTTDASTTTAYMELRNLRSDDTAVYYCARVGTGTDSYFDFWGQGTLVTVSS VL: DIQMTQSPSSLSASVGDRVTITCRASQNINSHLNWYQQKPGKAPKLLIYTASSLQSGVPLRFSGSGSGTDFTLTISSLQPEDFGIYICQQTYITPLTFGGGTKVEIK

>  <measuredValue>
524000

$$$$
>  <binder>
H4H10907P (antibody, human IgG4, V domains shown, H4H prefix = human IgG4 Fc) VH: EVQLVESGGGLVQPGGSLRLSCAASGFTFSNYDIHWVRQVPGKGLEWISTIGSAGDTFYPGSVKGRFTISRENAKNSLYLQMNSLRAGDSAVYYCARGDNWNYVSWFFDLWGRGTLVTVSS VL: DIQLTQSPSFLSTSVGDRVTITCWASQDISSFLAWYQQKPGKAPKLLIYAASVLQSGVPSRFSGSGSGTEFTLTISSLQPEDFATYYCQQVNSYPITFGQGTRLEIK

>  <measuredValue>
1.51e+06

$$$$

Lookup: Requested field: kon. Item: H4H10861P (antibody, human IgG4, V domains shown, H4H prefix = human IgG4 Fc) VH: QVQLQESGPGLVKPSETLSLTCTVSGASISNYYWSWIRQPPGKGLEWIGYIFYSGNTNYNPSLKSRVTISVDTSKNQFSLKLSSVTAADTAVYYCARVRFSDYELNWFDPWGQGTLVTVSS VL: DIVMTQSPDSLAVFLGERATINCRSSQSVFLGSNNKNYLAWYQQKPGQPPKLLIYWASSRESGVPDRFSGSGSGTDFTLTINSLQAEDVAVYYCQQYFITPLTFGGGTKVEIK
Found: 3.03e+06
